Data credit: paper PMC10397247

- TARGET_DESC: T1, 4H584-bH
- T1 chain: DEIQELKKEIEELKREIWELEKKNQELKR
- ASSAY_INFO: two-hybrid library CCNG1;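 also: natural log of median RNA to DNA barcode read ratio; higher means stronger binding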
Entry flag: y if interaction score reaches 0.6; n if it does not.

- BINDER: "DKNQELKKEIEELERKNWELEKKIQELKR [4H3638-bH]"
  GROUP_LABEL: "n"
- BINDER: "DENQELEKKNEELERKIWELKKEIQELER [4H1449-bH]"
  GROUP_LABEL: "n"
- BINDER: "DKIQELEKKNEELKRENWELEKKIQELKR [4H2518-bH]"
  GROUP_LABEL: "y"

Exercise: Check this binder for interaction score at or above 0.6: DEIQELKKEIEELKREIWELEKKNQELKR [4H584-bH]
Solution: y

Exercise: Check this binder for interaction score at or above 0.6: DENQELEKENEELKREIWELEKKIQELKR [4H1222-bH]
Solution: y

Exercise: Check this binder for interaction score at or above 0.6: DKNQELKKEIEELERKIWELKKKNQELER [4H3631-bH]
Solution: n

Exercise: Check this binder for interaction score at or above 0.6: DEIQELKKEIEELERKNWELKKEIQELKR [4H570-bH]
Solution: n
